# tested system: ORL1 (UniProt P41146)
# Sequence (P41146 whole entry): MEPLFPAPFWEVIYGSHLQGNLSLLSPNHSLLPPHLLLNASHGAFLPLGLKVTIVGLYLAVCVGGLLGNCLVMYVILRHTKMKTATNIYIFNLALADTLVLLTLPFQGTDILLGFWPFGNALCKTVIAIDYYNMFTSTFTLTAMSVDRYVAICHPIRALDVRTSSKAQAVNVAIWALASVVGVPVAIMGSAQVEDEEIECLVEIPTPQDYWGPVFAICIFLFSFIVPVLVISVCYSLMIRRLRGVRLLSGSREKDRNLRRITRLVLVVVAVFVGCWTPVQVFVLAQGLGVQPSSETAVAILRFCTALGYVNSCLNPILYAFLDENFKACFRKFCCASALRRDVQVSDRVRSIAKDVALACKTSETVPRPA
# method notes: competition
*: point of attachment. Hexanoyl = CCCCCC(=O)*; Propionyl = CCC(=O)*
observation type: pIC50
Give only the number. pIC50 is defined as minus log10 of concentration in molar units.

Hexanoyl-RAYRWR-NH2 (SMILES CCCCCC(=O)N[C@@H](CCCNC(=N)N)C(=O)N[C@@H](C)C(=O)N[C@@H](Cc1ccc(O)cc1)C(=O)N[C@@H](CCCNC(=N)N)C(=O)N[C@@H](Cc1c[nH]c2ccccc12)C(=O)N[C@@H](CCCNC(=N)N)C(N)=O) [IV-35-B]; 6.95

Quick one: pIC50 for Hexanoyl-RYYRAR-NH2 (SMILES CCCCCC(=O)N[C@@H](CCCNC(=N)N)C(=O)N[C@@H](Cc1ccc(O)cc1)C(=O)N[C@@H](Cc1ccc(O)cc1)C(=O)N[C@@H](CCCNC(=N)N)C(=O)N[C@@H](C)C(=O)N[C@@H](CCCNC(=N)N)C(N)=O) [IV-41-B] ?
6.15

Quick one: pIC50 for Propionyl-RAYRWR-NH2 (SMILES CCC(=O)N[C@@H](CCCNC(=N)N)C(=O)N[C@@H](C)C(=O)N[C@@H](Cc1ccc(O)cc1)C(=O)N[C@@H](CCCNC(=N)N)C(=O)N[C@@H](Cc1c[nH]c2ccccc12)C(=O)N[C@@H](CCCNC(=N)N)C(N)=O) [IV-23-B] ?
6.74

Quick one: pIC50 for Propionyl-AYYRWR-NH2 (SMILES CCC(=O)N[C@@H](C)C(=O)N[C@@H](Cc1ccc(O)cc1)C(=O)N[C@@H](Cc1ccc(O)cc1)C(=O)N[C@@H](CCCNC(=N)N)C(=O)N[C@@H](Cc1c[nH]c2ccccc12)C(=O)N[C@@H](CCCNC(=N)N)C(N)=O) [IV-21-C] ?
5.75

Quick one: pIC50 for Propionyl-RYYAWR-NH2 (SMILES CCC(=O)N[C@@H](CCCNC(=N)N)C(=O)N[C@@H](Cc1ccc(O)cc1)C(=O)N[C@@H](Cc1ccc(O)cc1)C(=O)N[C@@H](C)C(=O)N[C@@H](Cc1c[nH]c2ccccc12)C(=O)N[C@@H](CCCNC(=N)N)C(N)=O) [IV-27-B] ?
6.40
